From: patent US20080058263A1

study target: T1, VEGFR-1-Fc (UniProt P17948 27-338)
T1 construct: domain: first three Ig domains; expressed in Drosophila S2 cells, purified on Protein A sepharose; also called VEGFR-1-Fc fusion protein; not shown: Fc fragment from the Signal-pIgPlus vector
T1 sequence (P17948 27-338): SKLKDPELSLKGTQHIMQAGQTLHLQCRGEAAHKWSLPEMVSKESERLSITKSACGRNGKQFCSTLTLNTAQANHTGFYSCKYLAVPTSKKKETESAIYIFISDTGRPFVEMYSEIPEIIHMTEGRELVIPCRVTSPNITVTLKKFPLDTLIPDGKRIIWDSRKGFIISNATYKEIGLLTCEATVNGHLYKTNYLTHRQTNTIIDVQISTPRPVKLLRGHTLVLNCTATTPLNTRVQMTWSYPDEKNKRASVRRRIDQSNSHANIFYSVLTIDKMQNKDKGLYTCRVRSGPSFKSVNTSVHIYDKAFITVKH
test details: receptor-Fc IP
assay metric: binding result

{"columns": ["binder", "assay metric", "data value"],
 "data": [
  ["64-5 (ligand) GQNHHEVVKFMDVYQRSYCHPREVCIDVGKEFGVATNTFFKPSCVPLMRCGGCCNDEGLECVPTEESNITMQIMRIKPHQGQHIGEMSFANHTSCRCMSKLD", "binding result", "no binding"],
  ["63-11 (ligand) GQNHHEVVKFMDVYQRSYCHPREVCIDVGKEYPDEIEYIFKPPCVSVYRCGGCCNSEGLQCVPTEESNITMQIMRITVPLSQGPKPVTISFLQHNKCECRPKKD", "binding result", "no binding"]
]}
